Tested on: PRMT1 (protein arginine N-methyltransferase 1)
Assay: PRMT1 binders on small-molecule microarrays, primary screen, biochemical, small-molecule microarray, 635 nm fluorescence (AID 1088);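 note: binding of Prmt1 protein to compounds spotted on small-molecule microarray slides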
Conditions: small-molecule microarray binding, higher = more signal
measured_metric: composite z-score
Number only, no unit.

In the examples that follow, each entry is paired with its recorded composite z-score.
C[C@@H](ON=C1[C@H]2CCn3c(=O)n(-c4ccccc4)c(=O)n3[C@H]2[C@H](O)[C@@H]2O[C@H]12)c1cn([C@H](CO)Cc2ccccc2)nn1: 0.587
CC(=O)OC[C@H]1O[C@H](C#CC(C)(C)C)C=C[C@@H]1OC(C)=O: 0.975
CO[C@H]1COC(=O)CC=C[C@@H](C)COC(=O)[C@@H](OCc2ccccc2)C=C[C@@H]1C: 1.47

Please turn your attention to the following entry.
What value of composite z-score has been reported for the following molecule? CCOC(=O)[C@H](Cc1ccccc1)NC(=O)CCC1CC(OC(=O)NCc2cccc3ccccc23)CC2(CCCC(COC(=O)NCCCN3CCCC3=O)O2)O1 (some centres undefined) 1.21

* * *

Assay: binders from COS7 lysate, DM2A8 probe, primary screen, torsin A project, cell lysate, small-molecule microarray, fluorescence 635/667 (AID 1065)
Details: higher = more signal, COS7 lysate expressing mutant human TOR1A
# reported composite z-score; entries follow
Number only, no unit.

In the examples that follow, each entry is paired with its recorded composite z-score.
C#CCCCON=C1C[C@@H](O)[C@@H](O)[C@@H]2[C@@H]3C(=O)N(C4CCCCC4)C(=O)[C@@H]3CC[C@H]12: 0.145
CCOC(=O)[C@H](CC(C)C)NC(=O)CCC1CC(OC(=O)NCc2cccc3ccccc23)CC2(CCCC(COC(=O)NCc3ccccc3)O2)O1 (some centres undefined): -0.0297
CO[C@H]1COC(=O)[C@H](C)NC(=O)CC=C[C@@H](C)[C@H](OC)COC(=O)CC=C[C@@H]1C: 2.16

What value of composite z-score has been reported for the following compound? `C[C@@H](c1ccccc1)N1C(=O)[C@H]2[C@H]3[C@H](O)[C@H](O)CC(=O)[C@@H]3CC[C@H]2C1=O` 0.118

* * *

System: Plasmodium falciparum Sir2 (PF13_0152, Sir2A)
Experiment: pfSir2 binders on small-molecule microarrays, primary screen, biochemical, small-molecule microarray, 635 nm fluorescence (AID 1098);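 note: score merges spot fluorescence intensity with its signal-to-noise ratio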
Details: small-molecule microarray binding, fluorescence 635 nm; higher = more signal
Kind request: treat 0.3 as inclusive, so composite z-score at 0.3 or higher is 1.0, anything lower is 0.0.

Here are 4 compounds together with their reported answers.
COC(=O)[C@H](C)NC(=O)CCC1CC(OC(=O)NCCc2ccc(F)cc2)CC2(CCCC(COC(=O)NCCCN3CCCC3=O)O2)O1 (stereo partly specified): 1.0
CCCNC(=O)OC[C@H]1O[C@H](CCON=C(C)CCN2CCc3nc(-c4ccccc4)c(-c4ccccc4)cc3C2)C=C[C@@H]1Oc1ccc(OC)cc1: 0.0
O=C1[C@H]2[C@H]3[C@H](O)[C@H](O)CC(=NOCc4ccccc4)[C@H]3CC[C@H]2C(=O)N1Cc1ccccc1: 1.0
CC(C)=NOCc1ccc(-c2cn([C@@H]3COC[C@H]3O)nn2)cc1: 0.0

Dear colleague, could you confirm whether `CO[C@@H]1COC(=O)CC=C[C@H](C)COC(=O)[C@H](C)NC(=O)CC=C[C@H]1C` has composite z-score at or above 0.3? 0.0

Dear colleague, could you confirm whether `CC(C)=NO[C@@H](C)c1cc(-c2c(C)cc(C)cc2C)no1` has composite z-score at or above 0.3? 1.0
